Listed here: items and their measured Kd.
- experimental_system: Human PD-1/PDCD1 Protein (PD-1) (human, UniProt Q15116 25-167, limits assumed)
- Sequence (Q15116 25-167 limits assumed): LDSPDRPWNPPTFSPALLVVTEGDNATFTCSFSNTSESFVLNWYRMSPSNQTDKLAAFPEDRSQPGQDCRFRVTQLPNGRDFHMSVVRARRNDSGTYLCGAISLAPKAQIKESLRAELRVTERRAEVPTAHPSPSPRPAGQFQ
- test_protocol: SPR, Biacore 8K; PD-1 captured by anti-His antibody, antibody in flow

binder | result_value
HM268-L9 (antibody, human IgG1, V domains shown, also called humanized HM268, VH ver.L / VL ver.9) VH: QVQLVQSGPEVKKPGASVKVVCKTSGYTFTSYYIQWVRQVPGQGLEWMGWIYFGDASTKYNEKFKGRVTMTADTSTSTAYMELRSLRSDDTAVYYCASYYGSYFDYWGQGTTVTVSS VL: DIQMTQSPSSLSASVGDRVTITCRASQDISNYLNWYQQKPGKAPKLLIYSTSRLHSGVPSRFSGSGSGTDYTLTISSLQPEDFATYYCQQGSTLPFTFGQGTKLEIK | 0.0111 nM
HM242-A3 (antibody, human IgG1, V domains shown, also called humanized HM242, VH ver.A / VL ver.3) VH: QVQLVQSGPELVKPGASVKVVCKASGYTFTSYYIQWVKQRPGQGLEWIGWIYPGDGTTKYNEKFKGKTTLTIDKSTRTAYMELRSLRSDDTAVYYCASYYGSYFDYWGQGTLVTVSS VL: DIQMTQSPSSLSASVGDRVTITCRASQDISNYLNWYQQKPGKAPKLLIYYTSKLHSGVPSRFSGSGSGTDYTLTISSLQPEDFATYYCQQSSTLPFTFGQGTKLEIK | < 0.0217 nM

Please examine the following record next.
Query Kd for HM242-A2 (antibody, human IgG1, V domains shown, also called humanized HM242, VH ver.A / VL ver.2) VH: QVQLVQSGPELVKPGASVKVVCKASGYTFTSYYIQWVKQRPGQGLEWIGWIYPGDGTTKYNEKFKGKTTLTIDKSTRTAYMELRSLRSDDTAVYYCASYYGSYFDYWGQGTLVTVSS VL: DIQMTQSPSSLSASVGDRVTITCRASQDISNYLNWYQQKPDGTVTLLIYYTSKLHSGVPSRFSGSGSGTDYTLTISSLQPEDFATYYCQQSSTLPFTFGQGTKLEIK
< 0.0408 nM
